experiment: Pharmacokinetic study: plasma cannabinoids after single oral gavage of full-spectrum cannabis extract or individual cannabinoid; conditions: both, mouse, plasma, po, AUC, mouse plasma, oral, administered as individual cannabinoid; doses mg/kg: CBD 25, CBDA 50, CBDVA 7, THC 15, THCA 50
This section presents molecules with their documented AUC values.

{"molecule": "C=C(C)[C@@H]1CCC(C)=C[C@H]1c1c(O)cc(CCCCC)c(C(=O)O)c1O [CBDA, cannabidiolic acid]", "AUC / ng·h/mL": 27300}
{"molecule": "C=C(C)[C@@H]1CCC(C)=C[C@H]1c1c(O)cc(CCCCC)cc1O [CBD, cannabidiol]", "AUC / ng·h/mL": 1730}

---

test: Bidirectional transwell transport assay, wildtype MDCK cell monolayers; conditions: dog, MDCK
assay-readout: Papp B→A at 240 min, 10 µM

{"smiles-entry": "C=C(C)[C@@H]1CCC(C)=C[C@H]1c1c(O)cc(CCCCC)c(C(=O)O)c1O", "assay-readout": "Papp B→A at 240 min, 10 µM", "measurement": "370 ×10⁻⁶ cm/s"}
{"smiles-entry": "C=C(C)[C@@H]1CCC(C)=C[C@H]1c1c(O)cc(CCC)cc1O", "assay-readout": "Papp B→A at 240 min, 10 µM", "measurement": "440 ×10⁻⁶ cm/s"}
{"smiles-entry": "CCCCCc1cc(O)c(C/C=C(\\C)CCC=C(C)C)c(O)c1C(=O)O", "assay-readout": "Papp B→A at 240 min, 10 µM", "measurement": "10 ×10⁻⁶ cm/s"}
{"smiles-entry": "C=C(C)[C@@H]1CCC(C)=C[C@H]1c1c(O)cc(CCCCC)cc1O", "assay-readout": "Papp B→A at 240 min, 10 µM", "measurement": "250 ×10⁻⁶ cm/s"}
{"smiles-entry": "CCCCCc1cc(O)c(C/C=C(\\C)CCC=C(C)C)c(O)c1", "assay-readout": "Papp B→A at 240 min, 10 µM", "measurement": "100 ×10⁻⁶ cm/s"}

---

target: BCRP (Homo sapiens, UniProt Q9UNQ0); experiment: Bidirectional transwell substrate assay, MDCK cells expressing BCRP (with or without elacridar); conditions: BCRP MDCK cells, 10 µM cannabinoid, apical to basolateral
Sequence (Q9UNQ0 whole entry): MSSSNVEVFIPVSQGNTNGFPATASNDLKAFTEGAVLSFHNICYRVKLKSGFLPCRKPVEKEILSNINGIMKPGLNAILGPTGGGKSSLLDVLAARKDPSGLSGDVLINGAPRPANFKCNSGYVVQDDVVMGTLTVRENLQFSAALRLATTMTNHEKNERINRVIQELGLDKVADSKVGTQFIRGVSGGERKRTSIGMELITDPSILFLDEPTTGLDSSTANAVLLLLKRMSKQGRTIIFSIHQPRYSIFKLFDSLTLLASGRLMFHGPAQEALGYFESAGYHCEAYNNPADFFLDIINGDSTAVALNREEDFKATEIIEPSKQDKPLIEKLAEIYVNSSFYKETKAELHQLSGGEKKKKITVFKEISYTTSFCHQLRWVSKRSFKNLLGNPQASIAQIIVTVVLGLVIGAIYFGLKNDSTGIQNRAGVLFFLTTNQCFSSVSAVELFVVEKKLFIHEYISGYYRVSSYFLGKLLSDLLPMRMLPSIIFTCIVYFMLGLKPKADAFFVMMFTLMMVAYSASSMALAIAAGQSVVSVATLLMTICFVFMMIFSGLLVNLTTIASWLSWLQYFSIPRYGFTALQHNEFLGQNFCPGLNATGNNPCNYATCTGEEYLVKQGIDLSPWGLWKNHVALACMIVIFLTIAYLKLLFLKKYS

{"compound": "C=C(C)[C@@H]1CCC(C)=C[C@H]1c1c(O)cc(CCCCC)cc1O [CBD, cannabidiol]", "P (A > B)": "52 ± 8 × 10^−5 cm/s"}
{"compound": "C=C(C)[C@@H]1CCC(C)=C[C@H]1c1c(O)cc(CCC)c(C(=O)O)c1O [CBDVA, cannabidivarinic acid]", "P (A > B)": "24 ± 9 × 10^−5 cm/s"}
{"compound": "CCCCCc1cc(O)c2c(c1)OC(C)(C)[C@@H]1CCC(C)=C[C@@H]21 [Δ^9-THC, Δ^9-tetrahydrocannabinol, reference compound]", "P (A > B)": "54 ± 17 × 10^−5 cm/s"}
{"compound": "C=C(C)[C@@H]1CCC(C)=C[C@H]1c1c(O)cc(CCCCC)c(C(=O)O)c1O [CBDA, cannabidiolic acid]", "P (A > B)": "38 ± 11 × 10^−5 cm/s"}
{"compound": "CCCCCc1cc(O)c(C/C=C(\\C)CCC=C(C)C)c(O)c1 [CBG, cannabigerol]", "P (A > B)": "47 ± 9 × 10^−5 cm/s"}
{"compound": "C=C(C)[C@@H]1CCC(C)=C[C@H]1c1c(O)cc(CCC)cc1O [CBDV, cannabidivarin]", "P (A > B)": "63 ± 14 × 10^−5 cm/s"}
